Data origin, for the record: ChEMBL document CHEMBL5214910

Provide the reported MIC of each item.
Tested on: Escherichia coli
Test: Antibacterial activity Escherichia coli ATCC 25922 assessed as inhibition of bacterial growth incubated for 24 hrs in the presence of 12.5 ug/mL Zn2+ by Muller hinton broth based dilution assay
Type: functional
Write the numeric value and append its unit.

query: Name the recorded MIC of the item CCN(CC)CC(O)COc1cccc2c1c1ccccc1n2CC=C(C)C (stereo not given) in your answer.
result: 50 mg/L

query: Name the recorded MIC of the item CCCCCn1c2ccccc2c2c(OCC(O)CN(Cc3ccccn3)Cc3ccccn3)cccc21 (stereo not given) in your answer.
result: 1.56 mg/L

query: Name the recorded MIC of the item CC(C)=CCn1c2ccccc2c2c(OCC(O)CN(C)C)cccc21 (stereo not given) in your answer.
result: 25 mg/L

query: Name the recorded MIC of the item CCCn1c2ccccc2c2c(OCC(O)CN(Cc3ccccn3)Cc3ccccn3)cccc21 (stereo not given) in your answer.
result: 6.25 mg/L

query: Name the recorded MIC of the item CC(C)=CCn1c2ccccc2c2c(OCC(O)CN(Cc3ccccn3)Cc3ccccn3)cccc21 (stereo not given) in your answer.
result: 1.56 mg/L

====

Test system: Escherichia coli
Assay: Antibacterial activity Escherichia coli ATCC 25922 assessed as inhibition of bacterial growth incubated for 24 hrs in the presence of 12.5 ug/mL Zn2+ by Muller hinton broth based dilution assay
Format: functional
REPORTED PROPERTY: MIC

query: Name the recorded MIC of the item CCCCCCCCCn1c2ccccc2c2c(OCC(O)CN(Cc3ccccn3)Cc3ccccn3)cccc21 (stereo not drawn) in your answer.
result: > 50 µg/mL

query: Name the recorded MIC of the item `O=C(O)c1cn(C2CC2)c2cc(N3CCNCC3)c(F)cc2c1=O` in your answer.
result: 0.049 µg/mL

query: Name the recorded MIC of the item CC(C)=CCn1c2ccccc2c2c(OCC(O)CNCc3ccccn3)cccc21 (stereo not drawn) in your answer.
result: > 50 µg/mL

query: Name the recorded MIC of the item Cn1c2ccccc2c2c(OCC(O)CN(Cc3ccccn3)Cc3ccccn3)cccc21 (stereo not drawn) in your answer.
result: 50 µg/mL

query: Name the recorded MIC of the item CCCCCCCn1c2ccccc2c2c(OCC(O)CN(Cc3ccccn3)Cc3ccccn3)cccc21 (stereo not drawn) in your answer.
result: 3.12 µg/mL

query: Name the recorded MIC of the item `CN[C@H](CC(C)C)C(=O)N[C@H]1C(=O)N[C@@H](CC(N)=O)C(=O)N[C@H]2C(=O)N[C@H]3C(=O)N[C@H](C(=O)N[C@H](C(=O)O)c4cc(O)cc(O)c4-c4cc3ccc4O)[C@H](O)c3ccc(c(Cl)c3)Oc3cc2cc(c3O[C@@H]2O[C@H](CO)[C@@H](O)[C@H](O)[C@H]2O[C@H]2C[C@](C)(N)[C@H](O)[C@H](C)O2)Oc2ccc(cc2Cl)[C@H]1O` in your answer.
result: > 50 µg/mL

query: Name the recorded MIC of the item OC(COc1cccc2[nH]c3ccccc3c12)CN(Cc1ccccn1)Cc1ccccn1 (stereo not drawn) in your answer.
result: > 50 µg/mL

query: Name the recorded MIC of the item OC(COc1cccc2c1c1ccccc1n2CCCC(F)(F)F)CN(Cc1ccccn1)Cc1ccccn1 (stereo not drawn) in your answer.
result: 3.12 µg/mL

====

Test system: Escherichia coli
Experiment: Antibacterial activity Escherichia coli ATCC 25922 assessed as inhibition of bacterial growth incubated for 24 hrs by Muller hinton broth based dilution assay
Format: functional
Provide the reported MIC of each item.

query: Specify MIC for CCCn1c2ccccc2c2c(OCC(O)CN(Cc3ccccn3)Cc3ccccn3)cccc21 (stereo unspecified) , system Escherichia coli.
result: 12.5 mg/L

query: Specify MIC for CC(C)=CCn1c2ccccc2c2c(OCC(O)CNCc3ccccn3)cccc21 (stereo unspecified) , system Escherichia coli.
result: 50 mg/L

query: Specify MIC for CCCCCCCCCn1c2ccccc2c2c(OCC(O)CN(Cc3ccccn3)Cc3ccccn3)cccc21 (stereo unspecified) , system Escherichia coli.
result: > 50 mg/L

query: Specify MIC for CCCCCn1c2ccccc2c2c(OCC3CO3)cccc21 (stereo unspecified) , system Escherichia coli.
result: > 50 mg/L

query: Specify MIC for CCCCCCCn1c2ccccc2c2c(OCC3CO3)cccc21 (stereo unspecified) , system Escherichia coli.
result: > 50 mg/L

query: Specify MIC for OC(COc1cccc2[nH]c3ccccc3c12)CN(Cc1ccccn1)Cc1ccccn1 (stereo unspecified) , system Escherichia coli.
result: > 50 mg/L
